System: HCV replicon cells
Assay: HCV replicon FRET / luciferase assay (96-well plates)
Type: cell-based
Details: Hepatitis C virus, Table 1a; HCV replicon; read-out: EC50
measure.name: EC50

Input line: Complete the entry with EC50 for CNC(=O)c1c(-c2ccc(F)cc2)oc2ccc(-c3cccc(C(=O)N4CCCC(C)C4)c3)cc12 (centres unmarked)
Output line: 1000 to 10000 nM

Input line: Report EC50 for CNC(=O)c1c(-c2ccc(F)cc2)oc2ccc(-c3ccc(Cl)cc3C(=O)O)cc12
Output line: > 10000 nM

Input line: Output EC50 of CNC(=O)c1c(-c2ccc(F)cc2)oc2ccc(-c3cccc(C(=O)Nc4ccccc4-c4ccccc4)c3)cc12
Output line: < 250 nM

Input line: Retrieve EC50 measured for CNC(=O)c1c(-c2ccc(F)cc2)oc2ccc(-c3ccc(OC)nc3)cc12 and print it.
Output line: > 1230 nM

Input line: Recall and state the measured EC50 for CNC(=O)c1c(-c2ccc(F)cc2)oc2ccc(-c3cn[nH]c3)cc12 .
Output line: 250 to 1000 nM

====

I'd appreciate it if you could supply EC50 values for the items below.
System: HCV replicon cells
Test: HCV replicon FRET / luciferase assay (96-well plates)
Format: cell-based
Conditions: Hepatitis C virus, Table 1b; HCV replicon; read-out: EC50

Input line: Specify EC50 for CNC(=O)c1c(-c2ccc(F)cc2)oc2ccc(-c3cc(OCCOC)cc(C(=O)NCC(C)C)c3)cc12 , system HCV replicon cells.
Output line: 1000 to 10000 nM

Input line: Find the measured EC50 of CNC(=O)c1c(-c2ccc(F)cc2)oc2ccc(-c3cc(C(=O)NCC(C)C)ccc3OCCC3CCCCN3)cc12 (centres unmarked) with HCV replicon cells as test system.
Output line: < 250 nM

Input line: Under HCV replicon cells: report EC50 of CNC(=O)c1c(-c2ccc(F)cc2)oc2ccc(-c3cc(NC(=O)OC(C)(C)C)cc(C(=O)NCC(C)C)c3)cc12 .
Output line: < 250 nM

Input line: Param request: EC50 | system HCV replicon cells | item CNC(=O)c1c(-c2ccc(F)cc2)oc2ccc(-c3cc(C(=O)NC4(c5nc(C)no5)CC4)c(OC)cc3Cl)cc12
Output line: < 250 nM

Input line: Find the measured EC50 of CCNC(=O)c1cccc(-c2ccc(-c3ccc4oc(-c5ccc(F)cc5)c(C(=O)NC)c4c3)cc2C(=O)NCC(C)C)c1 with HCV replicon cells as test system.
Output line: < 250 nM

Input line: Provide EC50, system HCV replicon cells, entry CNC(=O)c1c(-c2ccc(F)cc2)oc2ccc(-c3cc(C(=O)NCC(C)C)ccc3OCCc3c(C)n[nH]c3C)cc12
Output line: < 250 nM

Input line: Determine reported EC50 for CNC(=O)c1c(-c2ccc(F)cc2)oc2ccc(-c3cc(OCc4cc(C)on4)cc(C(=O)NCC(C)C)c3)cc12 ; test system: HCV replicon cells.
Output line: 1000 to 10000 nM

Input line: Provide measured EC50 on HCV replicon cells for CNC(=O)c1c(-c2ccc(F)cc2)oc2cc([N+](=O)[O-])c(-c3cc(C(=O)NC4(c5ccccc5)CC4)ccc3OC)cc12 please.
Output line: 250 to 1000 nM

====

System: HCV replicon cells
Assay: HCV replicon FRET / luciferase assay (96-well plates)
Assay type: cell-based
Settings: Hepatitis C virus, Table 1a; HCV replicon; read-out: EC50
pEC50: −log10 of the molar value.
measure.name: pEC50

Input line: For the compound CNC(=O)c1c(-c2ccc(F)cc2)oc2ccc(-c3cccc(C(=O)O)c3)cc12 , report pEC50.
Output line: < 5.00

Input line: Return the recorded pEC50 value; entry: CNC(=O)c1c(-c2ccc(F)cc2)oc2ccc(-c3cccc(/C=C/C(=O)O)c3)cc12
Output line: 5.00 to 6.00

Input line: Quote pEC50 reported for CNC(=O)c1c(-c2ccc(F)cc2)oc2cc(N(CCO)S(C)(=O)=O)c(-c3cccc(C(=O)NC(C)(C)c4ccccc4)c3)cc12 please.
Output line: > 6.60

Input line: Report pEC50, nothing else, for this compound: CCCCCNC(=O)c1cccc(-c2ccc3oc(-c4ccc(F)cc4)c(C(=O)NC)c3c2)c1
Output line: > 6.60

Input line: Please report the measured pEC50 for CCCC(CCC)NC(=O)c1cccc(-c2ccc3oc(-c4ccc(F)cc4)c(C(=O)NC)c3c2)c1
Output line: 5.00 to 6.00

This collection of values is drawn from patent US8309558B2.
